Attribution: patent US9796741B2

Parameter: IC50. Scope: all listed entries.
- STUDY TARGET: UniProt:P00746
- Sequence (P00746 26-253): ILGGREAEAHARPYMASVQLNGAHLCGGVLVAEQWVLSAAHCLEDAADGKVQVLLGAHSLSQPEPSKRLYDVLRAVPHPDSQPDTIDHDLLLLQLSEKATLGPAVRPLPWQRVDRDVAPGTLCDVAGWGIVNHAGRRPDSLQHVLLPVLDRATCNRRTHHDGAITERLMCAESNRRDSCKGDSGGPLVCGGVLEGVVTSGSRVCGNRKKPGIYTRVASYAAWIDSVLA
- PROCEDURE TEXT: Human Factor D Assay
- Assay type: biochemical
- CONDITION DETAILS: human factor D 80 nM, substrate Z-L-Lys-SBzl, DTNB
READOUT NAME: IC50

{"COMPOUND": "Cc1ncc(-c2ccc3c(c2)c(C(N)=O)nn3CC(=O)N2C[C@H](F)C[C@H]2C(=O)Nc2cccc(-c3ccccc3Cl)c2F)cn1 [Compound 103]", "MEASUREMENT": "< 1000 nM"}
{"COMPOUND": "NC(=O)c1nn(CC(=O)N2C[C@H](F)C[C@H]2C(=O)Nc2cccc(-c3ccccc3Cl)c2F)c2ccc(-c3cn[nH]c3)cc12 [Compound 1]", "MEASUREMENT": "< 1000 nM"}
{"COMPOUND": "NC(=O)c1nn(CC(=O)N2[C@@H]3C[C@@H]3C[C@H]2C(=O)Nc2cccc(-c3ccccc3Cl)c2F)c2ccc(-c3ncccn3)cc12 [Compound 7]", "MEASUREMENT": "< 1000 nM"}
{"COMPOUND": "NC(=O)c1nn(CC(=O)N2C[C@H](F)C[C@H]2C(=O)Nc2cccc(-c3ccccc3Cl)c2F)c2ccc(-c3cnc(N4CCCC4)nc3)cc12 [Compound 10]", "MEASUREMENT": "< 1000 nM"}
{"COMPOUND": "Cc1ccnn1-c1ccccc1NC(=O)[C@@H]1C[C@@H](F)CN1C(=O)Cn1nc(C(N)=O)c2cc(-c3ccnnc3)ccc21 [Compound 71]", "MEASUREMENT": "> 10000 nM"}
{"COMPOUND": "NC(=O)c1nn(CC(=O)N2C[C@H](F)C[C@H]2C(=O)NCc2cccc(Cl)c2F)c2cnc(-c3cncnc3)cc12 [Compound 18]", "MEASUREMENT": "< 1000 nM"}
{"COMPOUND": "CC(=O)c1cn(CC(=O)N2C[C@H](F)C[C@H]2C(=O)Nc2cncc(Br)n2)c2ccc(-c3ccnnc3)cc12 [Compound 127]", "MEASUREMENT": "< 1000 nM"}
{"COMPOUND": "CC(=O)c1cn(CC(=O)N2C[C@H](F)C[C@H]2C(=O)Nc2cccc(Cl)c2-n2cncn2)c2ccc(-c3ccnnc3)cc12 [Compound 95]", "MEASUREMENT": "> 10000 nM"}
{"COMPOUND": "CC(=O)c1cn(CC(=O)N2C[C@H](F)C[C@H]2C(=O)Nc2cccc(Br)n2)c2ccc(-c3ccccc3Cl)cc12 [Compound 100]", "MEASUREMENT": "< 1000 nM"}
{"COMPOUND": "Cc1cc(NC(=O)[C@@H]2C[C@@H](F)CN2C(=O)Cn2nc(C(N)=O)c3cc(-c4ccnnc4)ccc32)n2nc(C(F)(F)F)nc2n1 [Compound 113]", "MEASUREMENT": "> 10000 nM"}
{"COMPOUND": "CC(=O)c1cn(CC(=O)N2C[C@H](F)C[C@H]2C(=O)Nc2nc(-c3ccccc3Cl)ns2)c2ccc(-c3ccnnc3)cc12 [Compound 99]", "MEASUREMENT": "< 1000 nM"}
{"COMPOUND": "NC(=O)c1nn(CC(=O)N2C[C@H](F)C[C@H]2C(=O)Nc2cccc(Br)n2)c2ccc(-c3ccc(N4CCOCC4)cc3)cc12 [Compound 3]", "MEASUREMENT": "< 1000 nM"}
{"COMPOUND": "CC(=O)c1cn(CC(=O)N2C[C@H](F)C[C@H]2C(=O)Nc2ccc3ccccc3c2)c2ccc(-c3ccnnc3)cc12 [Compound 110]", "MEASUREMENT": "> 10000 nM"}
